Attribution: patent US20220402995A1

Biological target: T1, VLP2 (virus-like particles of AAV2) (AAV2, UniProt P03135 1-735; P03135 1-598; P03135 1-533)
T1 construct: Empty AAV2 capsid; background says about 60 protein molecules, VP1:VP2:VP3 = 1:1:10; Immobilised on the ELISA plate
T1 sequence (P03135 whole entry, chain 1 of 3): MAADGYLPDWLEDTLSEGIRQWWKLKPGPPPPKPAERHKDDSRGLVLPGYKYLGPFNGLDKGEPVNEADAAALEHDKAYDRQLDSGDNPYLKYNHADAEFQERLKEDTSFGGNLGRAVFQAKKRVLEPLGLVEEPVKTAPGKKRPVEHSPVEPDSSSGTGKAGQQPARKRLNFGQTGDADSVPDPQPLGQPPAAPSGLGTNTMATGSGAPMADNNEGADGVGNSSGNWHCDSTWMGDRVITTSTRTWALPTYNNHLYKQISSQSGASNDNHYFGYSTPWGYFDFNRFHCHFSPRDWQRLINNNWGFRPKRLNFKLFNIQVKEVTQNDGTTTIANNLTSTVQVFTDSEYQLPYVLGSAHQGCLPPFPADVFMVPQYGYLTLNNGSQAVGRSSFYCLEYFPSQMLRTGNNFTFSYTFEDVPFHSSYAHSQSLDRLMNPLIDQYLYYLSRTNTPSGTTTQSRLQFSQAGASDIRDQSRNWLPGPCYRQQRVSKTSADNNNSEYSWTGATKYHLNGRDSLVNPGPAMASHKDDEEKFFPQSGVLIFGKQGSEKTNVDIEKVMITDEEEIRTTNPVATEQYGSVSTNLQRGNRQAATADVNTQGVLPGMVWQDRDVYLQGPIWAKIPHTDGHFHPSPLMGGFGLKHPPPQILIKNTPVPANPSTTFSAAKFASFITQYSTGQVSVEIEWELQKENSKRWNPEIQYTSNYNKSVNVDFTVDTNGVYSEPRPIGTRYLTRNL
T1 sequence (P03135 139-735, tags left off, chain 2 of 3): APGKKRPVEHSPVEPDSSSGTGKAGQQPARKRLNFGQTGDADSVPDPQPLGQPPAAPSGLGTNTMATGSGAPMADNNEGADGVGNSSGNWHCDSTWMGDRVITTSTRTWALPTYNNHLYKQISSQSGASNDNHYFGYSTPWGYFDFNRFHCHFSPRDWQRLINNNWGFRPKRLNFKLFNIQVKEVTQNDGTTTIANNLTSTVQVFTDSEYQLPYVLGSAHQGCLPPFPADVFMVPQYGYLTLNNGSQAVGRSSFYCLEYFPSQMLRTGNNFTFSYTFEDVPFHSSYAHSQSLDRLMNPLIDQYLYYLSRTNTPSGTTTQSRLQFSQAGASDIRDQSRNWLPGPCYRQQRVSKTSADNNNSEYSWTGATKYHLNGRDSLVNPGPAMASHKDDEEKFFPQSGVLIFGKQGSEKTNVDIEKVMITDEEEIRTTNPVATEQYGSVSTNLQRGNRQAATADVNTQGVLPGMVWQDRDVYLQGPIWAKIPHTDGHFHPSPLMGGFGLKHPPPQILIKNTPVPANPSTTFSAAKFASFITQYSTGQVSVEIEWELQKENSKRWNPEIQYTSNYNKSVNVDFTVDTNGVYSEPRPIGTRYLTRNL
T1 sequence (P03135 203-735, chain 3 of 3): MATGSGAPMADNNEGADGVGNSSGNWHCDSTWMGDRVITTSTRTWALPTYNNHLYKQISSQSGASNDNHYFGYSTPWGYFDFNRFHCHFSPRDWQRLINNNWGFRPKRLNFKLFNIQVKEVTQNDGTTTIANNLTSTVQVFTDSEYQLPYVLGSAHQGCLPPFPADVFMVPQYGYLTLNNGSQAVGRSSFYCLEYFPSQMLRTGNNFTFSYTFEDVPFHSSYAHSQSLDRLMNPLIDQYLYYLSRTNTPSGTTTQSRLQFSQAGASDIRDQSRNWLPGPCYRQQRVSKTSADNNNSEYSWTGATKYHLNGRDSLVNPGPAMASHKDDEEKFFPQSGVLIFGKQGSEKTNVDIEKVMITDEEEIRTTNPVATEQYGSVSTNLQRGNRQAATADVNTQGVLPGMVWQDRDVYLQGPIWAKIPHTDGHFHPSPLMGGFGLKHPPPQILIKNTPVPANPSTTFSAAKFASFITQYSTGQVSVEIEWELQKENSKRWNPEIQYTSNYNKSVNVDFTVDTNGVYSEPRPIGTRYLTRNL
Test: ELISA on VLP2; binding after pH 3.0 51.1°C 15 min / untreated;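 further: binding of the heat-treated AAV-binding protein to VLP2, expressed as a percentage of the binding of the same protein without heating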
OBSERVABLE: Residual activity [%] (%)
# unit: % | format: bare number

Ask: Any idea what Residual activity [%] was measured for AAV-binding protein No. 79 (AVR2 + Lys338Asn, Asn487Asp) (receptor) MGSAGESVQITLPKNEVQLNAYVLQEPPNGETCTYDWQLITHPRDYSGEMEGKHSQILKLSKLTPGLYEFKVIVEGQNAHSEGYVNVTVKPEPRKNRPPIAIVSPQFQEISLPTTSTVIDGSQSTDDDKIVQYHWEELKGPLREEKISEDTAILKLSKLVPGNYTFSLTVVDSDGATDSTTANLTVNKAVDHHHHHH ?
Reply: 73.1

Ask: Any idea what Residual activity [%] was measured for AAV-binding protein No. 70 (AVR2 + Val383Ala) (receptor) MGSAGESVQITLPKNEVQLNAYVLQEPPKGETCTYDWQLITHPRDYSGEMEGKHSQILKLSKLTPGLYEFKVIAEGQNAHSEGYVNVTVKPEPRKNRPPIAIVSPQFQEISLPTTSTVIDGSQSTDDDKIVQYHWEELKGPLREEKISEDTAILKLSKLVPGNYTFSLTVVDSDGATNSTTANLTVNKAVDHHHHHH ?
Reply: 32.8
